Assay: Human single-dose PK of 60 mg d-MPH-CO2CH2-nicotinoyl-L-Ser chloride capsules, fasted and fed
Format: in vivo
Settings: both sexes, human, plasma, oral, 60 mg, analyte d-MPH-CO2CH2-nicotinoyl-L-Ser; Fasted
Readout name: AUC(0-inf)
Numeric answer plus unit only.

## Task Name the recorded AUC(0-inf) for COC(=O)[C@H](c1ccccc1)[C@H]1CCCCN1C(=O)OC[n+]1cccc(C(=O)N[C@@H](CO)C(=O)O)c1.[Cl-] [d-MPH-CO2CH2-nicotinoyl-L-Ser chloride] .
## Result 309 ng·h/mL

----------
Test: Human single-dose PK of 60 mg d-MPH-CO2CH2-nicotinoyl-L-Ser chloride capsules, fasted and fed
Type: in vivo
Details: both sexes, human, plasma, oral, 60 mg, analyte d-MPH-CO2CH2-nicotinoyl-L-Ser; Fed
Readout name: AUC(0-inf) (ng·h/mL)
Use ng·h/mL as the unit, but write only the number.

## Task Name the recorded AUC(0-inf) for COC(=O)[C@H](c1ccccc1)[C@H]1CCCCN1C(=O)OC[n+]1cccc(C(=O)N[C@@H](CO)C(=O)O)c1.[Cl-] [d-MPH-CO2CH2-nicotinoyl-L-Ser chloride] .
## Result 84.2

----------
Assay: Human single-dose PK of 60 mg d-MPH-CO2CH2-nicotinoyl-L-Ser chloride capsules, fasted and fed
Format: in vivo
Settings: both sexes, human, plasma, oral, 60 mg, analyte d-MPH-CO2CH2-nicotinoyl-L-Ser; Fasted; read-out: AUC0-last
Readout name: AUC(0-t) (ng·h/mL)
Use ng·h/mL as the unit, but write only the number.

## Task Name the recorded AUC(0-t) for COC(=O)[C@H](c1ccccc1)[C@H]1CCCCN1C(=O)OC[n+]1cccc(C(=O)N[C@@H](CO)C(=O)O)c1.[Cl-] [d-MPH-CO2CH2-nicotinoyl-L-Ser chloride] .
## Result 306

----------
Assay: Human single-dose PK of 60 mg d-MPH-CO2CH2-nicotinoyl-L-Ser chloride capsules, fasted and fed
Assay type: in vivo
Conditions: both sexes, human, plasma, oral, 60 mg, analyte d-MPH-CO2CH2-nicotinoyl-L-Ser; Fasted; read-out: AUC0-24 hr
Readout name: AUC(0-t) (ng·h/mL)
Use ng·h/mL as the unit, but write only the number.

## Task Name the recorded AUC(0-t) for COC(=O)[C@H](c1ccccc1)[C@H]1CCCCN1C(=O)OC[n+]1cccc(C(=O)N[C@@H](CO)C(=O)O)c1.[Cl-] [d-MPH-CO2CH2-nicotinoyl-L-Ser chloride] .
## Result 300

----------
Assay: Human single-dose PK of 60 mg d-MPH-CO2CH2-nicotinoyl-L-Ser chloride capsules, fasted and fed
Type: in vivo
Conditions: both sexes, human, plasma, oral, 60 mg, analyte d-MPH-CO2CH2-nicotinoyl-L-Ser; Fed; read-out: AUC0-24 hr
Readout name: AUC(0-t) (ng·h/mL)
Use ng·h/mL as the unit, but write only the number.

## Task Name the recorded AUC(0-t) for COC(=O)[C@H](c1ccccc1)[C@H]1CCCCN1C(=O)OC[n+]1cccc(C(=O)N[C@@H](CO)C(=O)O)c1.[Cl-] [d-MPH-CO2CH2-nicotinoyl-L-Ser chloride] .
## Result 77.9

# credit: patent US11505537B2
